tested on: 217524-143-R1-J4-PDC spheroids with HUVEC/MSC, viability; experiment: Anticancer human tumor 217524-143-R1-J4-PDC patient-derived pancreatic carcinoma cell line growth inhibition [CLK]; conditions: second compound 1 µM; first compound 3.16 µM; hits give low values
Reported viability, T/C values for the following molecules.

molecule	target.or.test.system	display.unit	viability, T/C
Nc1ccn(C2OC(CO)C(O)C2(F)F)c(=O)n1 (stereo unspecified) + CNC(=O)c1ccc(Nc2nc(OC3CCCC3)c3c(-c4ccc5nc(C)oc5c4)c[nH]c3n2)c(OC)c1	217524-143-R1-J4-PDC spheroids with HUVEC/MSC, viability	%	13.3
CC(CO)NC(=O)c1cc(-c2ccc(Cl)cc2)nn(-c2cnn(C)c2)c1=O (stereo unspecified) + CN1CCN(c2cc(C(=O)Nc3cc4cc(-c5cnn(C)c5)ccc4cn3)ccn2)CC1	217524-143-R1-J4-PDC spheroids with HUVEC/MSC, viability	%	1.85
O=c1[nH]cc(F)c(=O)[nH]1 + CNC(=O)c1ccc(Nc2nc(OC3CCCC3)c3c(-c4ccc5nc(C)oc5c4)c[nH]c3n2)c(OC)c1	217524-143-R1-J4-PDC spheroids with HUVEC/MSC, viability	%	20.2
CC(Nc1ccc2c(c1)OCCn1cc(N3C(=O)OCC3C(F)F)nc1-2)C(N)=O (stereo unspecified) + CNC(=O)c1ccc(Nc2nc(OC3CCCC3)c3c(-c4ccc5nc(C)oc5c4)c[nH]c3n2)c(OC)c1	217524-143-R1-J4-PDC spheroids with HUVEC/MSC, viability	%	3.05
CC(=O)O[C@H]1C(=O)[C@@]2(C)[C@H]([C@H](OC(=O)c3ccccc3)[C@]3(O)C[C@H](OC(=O)[C@H](O)[C@@H](NC(=O)c4ccccc4)c4ccccc4)C(C)=C1C3(C)C)[C@]1(OC(C)=O)CO[C@@H]1C[C@@H]2O + CNC(=O)c1ccc(Nc2nc(OC3CCCC3)c3c(-c4ccc5nc(C)oc5c4)c[nH]c3n2)c(OC)c1	217524-143-R1-J4-PDC spheroids with HUVEC/MSC, viability	%	35.9
CC(=O)O[C@H]1C(=O)[C@@]2(C)[C@H]([C@H](OC(=O)c3ccccc3)[C@]3(O)C[C@H](OC(=O)[C@H](O)[C@@H](NC(=O)c4ccccc4)c4ccccc4)C(C)=C1C3(C)C)[C@]1(OC(C)=O)CO[C@@H]1C[C@@H]2O + CN1CCN(c2cc(C(=O)Nc3cc4cc(-c5cnn(C)c5)ccc4cn3)ccn2)CC1	217524-143-R1-J4-PDC spheroids with HUVEC/MSC, viability	%	2
C=C(F)C(=O)N1CCN(c2nc(OCC3CCCN3C)nc3c2CCN(c2cccc4cccc(Cl)c24)C3)CC1CC#N (stereo unspecified) + CN1CCN(c2cc(C(=O)Nc3cc4cc(-c5cnn(C)c5)ccc4cn3)ccn2)CC1	217524-143-R1-J4-PDC spheroids with HUVEC/MSC, viability	%	1.47
C#Cc1c(F)ccc2cc(O)cc(-c3ncc4c(N5CC6CCC(C5)N6)nc(OCC56CCCN5CC(F)C6)nc4c3F)c12 (stereo unspecified) + CNC(=O)c1ccc(Nc2nc(OC3CCCC3)c3c(-c4ccc5nc(C)oc5c4)c[nH]c3n2)c(OC)c1	217524-143-R1-J4-PDC spheroids with HUVEC/MSC, viability	%	24.5
COC1C=CCC(C)C(C)S(=O)(=O)NC(=O)c2ccc3c(c2)N(CC2CCC21)CC1(CCCc2cc(Cl)ccc21)CO3 (stereo unspecified) + CNC(=O)c1ccc(Nc2nc(OC3CCCC3)c3c(-c4ccc5nc(C)oc5c4)c[nH]c3n2)c(OC)c1	217524-143-R1-J4-PDC spheroids with HUVEC/MSC, viability	%	20.9
Nc1ccccc1NC(=O)c1ccc(CNC(=O)OCc2cccnc2)cc1 + CN1CCN(c2cc(C(=O)Nc3cc4cc(-c5cnn(C)c5)ccc4cn3)ccn2)CC1	217524-143-R1-J4-PDC spheroids with HUVEC/MSC, viability	%	0.8
O=C(c1cc(Cc2n[nH]c(=O)c3ccccc23)ccc1F)N1CCN(C(=O)C2CC2)CC1 + CN1CCN(c2cc(C(=O)Nc3cc4cc(-c5cnn(C)c5)ccc4cn3)ccn2)CC1	217524-143-R1-J4-PDC spheroids with HUVEC/MSC, viability	%	1.8
CC1(C)CCC(CN2CCN(c3ccc(C(=O)NS(=O)(=O)c4ccc(NCC5CCOCC5)c([N+](=O)[O-])c4)c(Oc4cnc5[nH]ccc5c4)c3)CC2)=C(c2ccc(Cl)cc2)C1 + CNC(=O)c1ccc(Nc2nc(OC3CCCC3)c3c(-c4ccc5nc(C)oc5c4)c[nH]c3n2)c(OC)c1	217524-143-R1-J4-PDC spheroids with HUVEC/MSC, viability	%	31.4
COc1cccc2c1C(=O)c1c(O)c3c(c(O)c1C2=O)CC(O)(C(=O)CO)CC3OC1CC(N)C(O)C(C)O1 (stereo unspecified) + CN1CCN(c2cc(C(=O)Nc3cc4cc(-c5cnn(C)c5)ccc4cn3)ccn2)CC1	217524-143-R1-J4-PDC spheroids with HUVEC/MSC, viability	%	1.55
COc1ccc([C@@H](O)c2cc(-c3ncnc4cc(N5CCOCC5)ccc34)c(F)cc2Cl)nn1 + CNC(=O)c1ccc(Nc2nc(OC3CCCC3)c3c(-c4ccc5nc(C)oc5c4)c[nH]c3n2)c(OC)c1	217524-143-R1-J4-PDC spheroids with HUVEC/MSC, viability	%	11.8
COc1ccc([C@@H](O)c2cc(-c3ncnc4cc(N5CCOCC5)ccc34)c(F)cc2Cl)nn1 + CN1CCN(c2cc(C(=O)Nc3cc4cc(-c5cnn(C)c5)ccc4cn3)ccn2)CC1	217524-143-R1-J4-PDC spheroids with HUVEC/MSC, viability	%	0.91
CC1COCCN1c1cc(C2(S(C)(=N)=O)CC2)nc(-c2ccnc3[nH]ccc23)n1 (stereo unspecified) + CN1CCN(c2cc(C(=O)Nc3cc4cc(-c5cnn(C)c5)ccc4cn3)ccn2)CC1	217524-143-R1-J4-PDC spheroids with HUVEC/MSC, viability	%	1.87

----------
tested on: 217524-143-R1-J4-PDC spheroids with HUVEC/MSC, viability; assay: Anticancer human tumor 217524-143-R1-J4-PDC cell line growth inhibition [CLK]; conditions: second compound 0.316 µM; first compound 10 µM; active means viability on the fitted dose curve at most 10% of control; inactive means the rest;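 note: spheroids exposed to agents for seven days before reading; 100% = DMSO vehicle control viability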
Outcomes: 1 (yes) for active, 0 (no) for inactive

compound	assigned.label
CCCS(=O)(=O)Nc1ccc(F)c(C(=O)c2c[nH]c3ncc(-c4ccc(Cl)cc4)cc23)c1F + CNC(=O)c1ccc(Nc2nc(OC3CCCC3)c3c(-c4ccc5nc(C)oc5c4)c[nH]c3n2)c(OC)c1	0 (no)
COc1cccc2c1C(=O)c1c(O)c3c(c(O)c1C2=O)CC(O)(C(=O)CO)CC3OC1CC(N)C(O)C(C)O1 (stereo not given) + CNC(=O)c1ccc(Nc2nc(OC3CCCC3)c3c(-c4ccc5nc(C)oc5c4)c[nH]c3n2)c(OC)c1	1 (yes)
COc1ccc([C@@H](O)c2cc(-c3ncnc4cc(N5CCOCC5)ccc34)c(F)cc2Cl)nn1 + CNC(=O)c1ccc(Nc2nc(OC3CCCC3)c3c(-c4ccc5nc(C)oc5c4)c[nH]c3n2)c(OC)c1	1 (yes)
CC(Nc1ccc2c(c1)OCCn1cc(N3C(=O)OCC3C(F)F)nc1-2)C(N)=O (stereo not given) + CN1CCN(c2cc(C(=O)Nc3cc4cc(-c5cnn(C)c5)ccc4cn3)ccn2)CC1	1 (yes)
C#Cc1c(F)ccc2cc(O)cc(-c3ncc4c(N5CC6CCC(C5)N6)nc(OCC56CCCN5CC(F)C6)nc4c3F)c12 (stereo not given) + CNC(=O)c1ccc(Nc2nc(OC3CCCC3)c3c(-c4ccc5nc(C)oc5c4)c[nH]c3n2)c(OC)c1	0 (no)
Nc1ccccc1NC(=O)c1ccc(CNC(=O)OCc2cccnc2)cc1 + CNC(=O)c1ccc(Nc2nc(OC3CCCC3)c3c(-c4ccc5nc(C)oc5c4)c[nH]c3n2)c(OC)c1	0 (no)
O=c1[nH]cc(F)c(=O)[nH]1 + CNC(=O)c1ccc(Nc2nc(OC3CCCC3)c3c(-c4ccc5nc(C)oc5c4)c[nH]c3n2)c(OC)c1	0 (no)
C=CC(=O)N1CCN(c2nc(=O)n(-c3c(C)ccnc3C(C)C)c3nc(-c4c(O)cccc4F)c(F)cc23)C(C)C1 (stereo not given) + CN1CCN(c2cc(C(=O)Nc3cc4cc(-c5cnn(C)c5)ccc4cn3)ccn2)CC1	0 (no)
CCCS(=O)(=O)Nc1ccc(F)c(C(=O)c2c[nH]c3ncc(-c4ccc(Cl)cc4)cc23)c1F + CN1CCN(c2cc(C(=O)Nc3cc4cc(-c5cnn(C)c5)ccc4cn3)ccn2)CC1	0 (no)
COC1C=CCC(C)C(C)S(=O)(=O)NC(=O)c2ccc3c(c2)N(CC2CCC21)CC1(CCCc2cc(Cl)ccc21)CO3 (stereo not given) + CNC(=O)c1ccc(Nc2nc(OC3CCCC3)c3c(-c4ccc5nc(C)oc5c4)c[nH]c3n2)c(OC)c1	0 (no)

Every entry's value here was drawn from PubChem BioAssay AID2060624.
